- protocol_notes: ATG_NF_kB_CIS: Attagene CIS-FACTORIAL HepG2 Assay for human Nuclear Factor Kappa B (NF-kB) (AID 2282991)
- measurement_setup: HepG2 Attagene cis-factorial NF-kB reporter mRNA; actives raise or lower the signal
Calls of active or inactive are those of the source. How the source made its calls: active means hit-call score of the fitted dose curve at least 0.9, where 1 is the maximum; inactive means score below 0.9.
Please answer using one outcome listed in T = active, F = inactive

# count of solved cases: 5
CCC(C)C=O (stereo not given) ... F
CC(C)c1ccc(C#N)cc1 ... F
COCCCOCCCOC ... F
CC(C)c1ccc2c(c1)CC[C@H]1[C@](C)(CN)CCC[C@]21C ... T
CCCCCCCC/C=C\CCCCCCCC(=O)OCCO ... T

Incoming: What did the test return for O=C(O)CCCC[C@@H]1SC[C@@H]2NC(=O)N[C@@H]21 ?
Outgoing: F

Incoming: What did the test return for CO[Si](OC)(OC)c1ccccc1 ?
Outgoing: F

Incoming: What did the test return for CC(C)C(=O)C(C)C ?
Outgoing: F

Incoming: What did the test return for CCN(CC)c1ccc(C(=O)c2ccccc2C(=O)O)c(O)c1 ?
Outgoing: F

Incoming: What did the test return for C(=CC=Nc1ccccc1)C=CNc1ccccc1 ?
Outgoing: F

Incoming: What did the test return for FC(F)(F)C(=NOCC1OCCO1)c1ccc(Cl)cc1 ?
Outgoing: F

###

- Read-out: Thrombomodulin, THBD (gene 7056)
- protocol_notes: BSK_3C_Thrombomodulin: BioMAP Diversity Plus: 3C Assay for Thrombomodulin Biomarker Activity (AID 2283029)
- measurement_setup: primary human endothelial cells (HUVEC); actives raise or lower the signal
Activity calls are given as the source filed them. Rule for the calls: active = hit-call score of the fitted dose curve at least 0.9, where 1 is the maximum; inactive = score below 0.9.
Please answer using one outcome listed in 1 for active, 0 for inactive

# count of solved cases: 2
CCCCNc1ccc(NCCCC)c2c1C(=O)c1ccccc1C2=O ... 0
C/C=C\C/C=C/CCCCCCCCOC(C)=O ... 0

Incoming: What did the test return for c1ccc2c(c1)ccc1ncccc12 ?
Outgoing: 0

Incoming: What did the test return for C=CCOc1c(Br)cc(Br)cc1Br ?
Outgoing: 1

Incoming: What did the test return for O=c1c2ccccc2oc2ccccc12 ?
Outgoing: 0

###

- Read-out: Urokinase-type plasminogen activator receptor (uPAR), PLAUR (gene 5329)
- protocol_notes: BSK_CASM3C_uPAR: BioMAP Diversity Plus: CASM3C Assay for Urokinase-type plasminogen activator receptor (uPAR) Biomarker Activity (AID 2283054);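 further: cell-surface uPAR protein level quantified by ELISA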
- measurement_setup: primary human coronary artery smooth muscle cells; actives raise or lower the signal
Calls of active or inactive are those of the source. The calls were made as follows: active = hit-call score of the fitted dose curve at least 0.9, where 1 is the maximum; inactive = score below 0.9.
Please answer using one outcome listed in 1 for active, 0 for inactive

CCCCCCCCCCCCCCCC[N+](C)(C)CC ... 1
CC(C)(c1cc(Br)c(OCCO)c(Br)c1)c1cc(Br)c(OCCO)c(Br)c1 ... 0
CCCCC(CC)COCC1CO1 (stereo not drawn) ... 0

Incoming: What did the test return for C/C=C\C/C=C/CCCCCCCCOC(C)=O ?
Outgoing: 1

Incoming: What did the test return for CCO[Si](CCCN=C=O)(OCC)OCC ?
Outgoing: 0

Incoming: What did the test return for COc1ccc2nc(N)sc2c1 ?
Outgoing: 0

Incoming: What did the test return for C=CC(=O)OCC(Br)CBr (stereo not drawn) ?
Outgoing: 1

Incoming: What did the test return for CCO[Si](C)(OCC)OCC ?
Outgoing: 0

###

- measured_target: Transcription factor Sp1 (Homo sapiens)
- protocol_notes: ATG_Sp1_CIS: Attagene CIS-FACTORIAL HepG2 Assay for human Specificity Protein 1 (Sp1) (AID 2282961)
- measurement_setup: HepG2 Sp1 cis-reporter transcription, actives raise or lower the signal
Calls of active or inactive are those of the source. How the source made its calls: active means hit-call score of the fitted dose curve at least 0.9, where 1 is the maximum; inactive means score below 0.9.
Please answer using one outcome listed in t (active), f (inactive)

# count of solved cases: 4
C/C=C\C/C=C/CCCCCCCCOC(C)=O ... f
CC1=Nc2ccc3ccccc3c2C1(C)C ... f
COC(=O)c1ccccc1OC ... f
O=C(O)Cc1c(Cl)ccc(Cl)c1Cl ... f

# ---- query compound ----
Incoming: What did the test return for O=[N+]([O-])C1(Br)COCOC1 ?
Outgoing: t

Source: PubChem BioAssay (EPA / NIEHS)
